B1: TMEM106C (parent)
chain: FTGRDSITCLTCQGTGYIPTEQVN

Variants of: B1
Assay summary: protein stability index of a GFP-peptide fusion (GPS, HEK-293T) (PSI 1-6); higher = more stable;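 note: lentivirally expressed fusions sorted by FACS into six bins by GFP to DsRed ratio, PSI derived from sequencing read proportions per bin multiplied by bin number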
Stated conditions: c terminus: a fixed tail appended
Observable: protein stability index

Consider the worked cases shown below.
FKGRDSITCLTCQGTGYIPTEQVN [T2K] = 4.3
FTGRDSIFCLTCQGTGYIPTEQVN [T8F] = 3.56
FTGIDSITCLTCQGTGYIPTEQVN [R4I] = 2.48

Field: protein stability index. Fill in for each record below.
1. FTGRDSITCLTCQGTGYIGTEQVN [P19G]
2. FYGRDSITCLTCQGTGYIPTEQVN [T2Y]
3. FTGRDSITCLTCQGTGYIPTEQSN [V23S]
4. FTGRDSITCLTCQGTGYIPTEQVC [N24C]
5. MTGRDSITCLTCQGTGYIPTEQVN [F1M]

// result
1: 1.63; 2: 3.3; 3: 1.51; 4: 2.25; 5: 4.77
